test: plasma pharmacokinetics following different routes of administration; assay type: in vivo, Balb C mice; conditions: female, Balb C, mouse, po, 10 mg/kg
measured_metric: bioavailability (%)
Answer with a number only, understood to be in %.

Problem: State the recorded bioavailability for this entry: CCN1CCN(CC(=O)Nc2ccc(-c3cccc4c(=O)cc(N5CCOCC5)oc34)c3sc4ccccc4c23)CC1 [KU-0060648]
Result: 119

* * *

assay type: in vivo, mice; conditions: female, CD1-nu/nu (athymic), mouse, plasma, intravenous, 12.5 mg/kg
measured_metric: concentration at 60 min

Problem: Requested read-out: concentration at 60 min. Entry: CCN1CCN(CC(=O)Nc2ccc(-c3cccc4c(=O)cc(N5CCOCC5)oc34)c3sc4ccccc4c23)CC1 [KU-0060648]
Result: 2100 nM
